Test system: C57BL6 mice, severe CCI brain injury
test-details: Controlled cortical impact (TBI) injury, hippocampal volume
Type: in vivo
condition-summary: 5 μL of 500 μM icv; extrapolated from total CSF volume in mice (35 μL); unit of the source corrected
reported-endpoint: estimated final tissue AQ2S concentration

Short answer for `O=C1c2ccccc2C(=O)c2cc(S(=O)(=O)O)ccc21` : estimated final tissue AQ2S concentration was ~71 µM

Entry source: patent US10857112B2
